Assay: Mean residence time in human at 500 mg, iv infused for 5 mins
Assay type: ADME, organism-based
Conditions: in vivo
MEASURED_ATTRIBUTE: MRT (h)
Please respond with the number in h and leave the unit unwritten.

Reported MRT of Cc1onc(-c2c(F)cccc2Cl)c1C(=O)N[C@@H]1C(=O)N2[C@@H]1SC(C)(C)[C@@H]2C(=O)O [FLOXACILLIN] : 1.18
